Ref: patent US11994512B2

# Test system: intracellular proteome of ENR+CD and ENR organoids
# EXPERIMENT DESCRIPTION: LC-MS/MS TMT proteomics of ENR+CD versus ENR organoids
# Type: cell-based, C57BL/6 mice
# MEASUREMENT CONTEXT: protein abundance ratio ENR+CD versus ENR organoids, sample pair M1-2; LC-MS/MS TMT proteomics
Recorded M1-2 Log2 Median Normalized for the following molecules

molecule="Q8VHC3 (protein, UniProt Q8VHC3 1-145, looked up, full-length) MSILLSPPSLLLLLAALVAPATSTTNYRPDWNRLRGLARGRVETCGGUQLNRLKEVKAFVTEDIQLYHNLVMKHLPGADPELVLLSRNYQELERIPLSQMTRDEINALVQELGFYRKSAPEAQVPPEYLWAPAKPPEEASEHDDL" observed=1.48

Please look at the following molecule next.
Given Q9QYY9 (protein, UniProt Q9QYY9 1-377, looked up, full-length) MGTQGKVIKCKAAIAWKTGSPLCIEEIEVSPPKACEVRIQVIATCVCPTDINATDPKKKALFPVVLGHECAGIVESVGPGVTNFKPGDKVIPFFAPQCKRCKLCLSPLTNLCGKLRNFKYPTIDQELMEDRTSRFTCKGRSIYHFMGVSSFSQYTVVSEANLARVDDEANLERVCLIGCGFSSGYGAAINTAKVTPSSTCAVFGLGCVGLSAIIGCKIAGASRIIAIDINGEKFPKAKALGATDCLNPRELDKPVQDVITELTAGGVDYSLDCAGTAQTLKAAVDCTVLGWGSCTVVGAKVDKMTIPTVDVILGRSINGTFFGGWKSVDSVPNLVSDYKNKKFDLDLLVTHALPFESINDAIDLMKEGKSIRTILTF , state its recorded M1-2 Log2 Median Normalized.
−2.606
